Data credit: PubChem BioAssay (EPA / NIEHS)

biological target: Estrogen receptor (Homo sapiens) (UniProt P03372); assay: NVS_NR_hER: NovaScreen (NVS) Nuclear Receptor Binding Assay for human Estrogen Receptor (ER) (AID 2283348)
Sequence (P03372 whole entry, looked up): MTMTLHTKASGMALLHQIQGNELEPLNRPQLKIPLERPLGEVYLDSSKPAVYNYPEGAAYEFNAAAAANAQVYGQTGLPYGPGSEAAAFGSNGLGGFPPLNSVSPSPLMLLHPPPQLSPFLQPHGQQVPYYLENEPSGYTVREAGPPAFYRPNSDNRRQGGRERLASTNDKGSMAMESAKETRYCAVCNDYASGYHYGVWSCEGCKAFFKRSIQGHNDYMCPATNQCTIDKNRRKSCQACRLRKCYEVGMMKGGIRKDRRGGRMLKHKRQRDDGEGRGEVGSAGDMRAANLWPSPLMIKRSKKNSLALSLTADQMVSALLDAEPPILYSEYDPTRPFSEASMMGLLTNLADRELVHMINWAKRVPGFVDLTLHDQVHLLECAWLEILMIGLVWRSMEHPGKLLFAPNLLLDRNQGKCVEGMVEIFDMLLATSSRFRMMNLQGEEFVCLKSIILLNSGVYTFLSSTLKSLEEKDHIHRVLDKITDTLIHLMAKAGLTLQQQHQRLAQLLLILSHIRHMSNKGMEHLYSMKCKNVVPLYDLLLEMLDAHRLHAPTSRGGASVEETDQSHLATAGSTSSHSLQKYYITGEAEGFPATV
Records with an inconclusive call do not appear. Activity calls are given as the source filed them. How the source made its calls: active means hit-call score of the fitted dose curve at least 0.9, where 1 is the maximum; inconclusive means response in the unintended direction; inactive means score below 0.9.
// allowed return values: YES (active), NO (inactive)

Recorded results for 2 compounds are shown here.
INSERT INTO measurements (smiles_structure, label_class) VALUES
  ('CCCCCCCCCCCCCCCCCCOS(=O)(=O)O', 'NO'),
  ('Oc1ccccc1Cc1ccccc1O', 'NO');

query: Could you please tell me the result logged for CCCCCCCOC(=O)c1ccc(O)cc1 in this assay?
result: YES

query: Could you please tell me the result logged for N=C1C=CC(=C(c2ccc(N)cc2)c2ccc(N)cc2)C=C1 in this assay?
result: NO

---

molecular target: Estrogen receptor (Homo sapiens); assay: ATG_ERa_TRANS: Attagene TRANS-FACTORIAL HepG2 Assay for human Estrogen Receptor alpha (ERa) (AID 2282970); details: HepG2 Attagene TRANS ERa GAL4 reporter, mRNA
Inconclusive results are not listed. Active and inactive are the calls of the source. The calls were made as follows: active = hit-call score of the fitted dose curve at least 0.9, where 1 is the maximum; inconclusive = response in the unintended direction; inactive = score below 0.9.
measured_property: AC50

INSERT INTO measurements (smiles_structure, recorded_value) VALUES
  ('CC(C)(c1ccccc1)c1ccc(Nc2ccc(C(C)(C)c3ccccc3)cc2)cc1', 'inactive'),
  ('O=C1CCCCCCCCCCC1', '21.2 µM (active)'),
  ('Nc1ccc(Cl)c(N)c1', 'inactive'),
  ('Clc1cc(Cl)c(Cl)c(Cl)c1Cl', '27 µM (active)');

---

target: Nuclear receptor subfamily 1 group I member 3 (Homo sapiens) (UniProt Q14994); test: ATG_CAR_TRANS: Attagene TRANS-FACTORIAL HepG2 Assay for human Constitutive Androstane Receptor (CAR) (AID 2282969); conditions: HepG2 Attagene TRANS-FACTORIAL CAR reporter;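 further: activators raise reporter mRNA above DMSO so AC50 marks induction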
Sequence (Q14994 whole entry, looked up): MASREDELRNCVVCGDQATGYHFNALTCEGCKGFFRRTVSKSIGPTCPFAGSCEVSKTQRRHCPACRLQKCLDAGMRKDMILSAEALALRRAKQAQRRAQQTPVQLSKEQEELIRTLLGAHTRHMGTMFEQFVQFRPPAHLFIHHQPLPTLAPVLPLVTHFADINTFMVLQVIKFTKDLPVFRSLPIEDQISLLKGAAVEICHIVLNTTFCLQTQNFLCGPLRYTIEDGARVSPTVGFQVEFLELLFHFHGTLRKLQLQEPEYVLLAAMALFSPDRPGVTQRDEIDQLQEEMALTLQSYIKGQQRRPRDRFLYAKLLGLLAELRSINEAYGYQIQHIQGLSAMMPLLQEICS
Inconclusive results are not listed. The source made the active and inactive calls. Rule for the calls: active = hit-call score of the fitted dose curve at least 0.9, where 1 is the maximum; inconclusive = response in the unintended direction; inactive = score below 0.9.
// allowed return values: Yes = active, No = inactive

Recorded results for 2 compounds are shown here.
INSERT INTO results (compound, tested_on, label_class) VALUES
  ('Nc1cccc(N)n1', 'Nuclear receptor subfamily 1 group I member 3 (Homo sapiens) (UniProt Q14994)', 'No'),
  ('CCC(C)(O)CCCC(C)C (configuration not stated)', 'Nuclear receptor subfamily 1 group I member 3 (Homo sapiens) (UniProt Q14994)', 'No');

query: Could you please tell me the result logged for CC(C)COC(=O)CC(C(=O)OCC(C)C)S(=O)(=O)O (configuration not stated) in this assay?
result: No

query: Could you please tell me the result logged for CC1C(C)(C)C2=C(C(=O)CCC2)C1(C)C (configuration not stated) in this assay?
result: No

query: Could you please tell me the result logged for COC(OC)(C(=O)c1ccccc1)c1ccccc1 in this assay?
result: No

query: Could you please tell me the result logged for C=CC(=O)NC(C)(C)C in this assay?
result: No

query: Could you please tell me the result logged for Oc1ccc(-c2ccccc2)c(Cl)c1 in this assay?
result: No

query: Could you please tell me the result logged for C=CC(=O)O[C@H]1C[C@@H]2CC[C@@]1(C)C2(C)C in this assay?
result: Yes

---

read-out: Thrombomodulin, THBD (gene 7056); assay: BSK_CASM3C_Thrombomodulin: BioMAP Diversity Plus: CASM3C Assay for Thrombomodulin Biomarker Activity (AID 2283051); settings: primary human coronary artery smooth muscle cells; actives raise or lower the signal;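 further: thrombomodulin protein level measured by ELISA 24 h after dosing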
The source made the active and inactive calls. The calls were made as follows: active = hit-call score of the fitted dose curve at least 0.9, where 1 is the maximum; inactive = score below 0.9.
// allowed return values: 1.0 = active, 0.0 = inactive

INSERT INTO measurements (compound, label_class) VALUES
  ('CC=C(C)C=CC=C(C)C', 0.0),
  ('CCOC(=O)C1=NN(c2ccc(Cl)cc2Cl)C(C)(C(=O)OCC)C1 (stereo unspecified)', 0.0);

query: Could you please tell me the result logged for CC(C)c1cccc(C(C)C)c1N in this assay?
result: 0.0

query: Could you please tell me the result logged for CCOC(=O)/C=C\C(=O)OCC in this assay?
result: 0.0

query: Could you please tell me the result logged for C=CCCCCCCCCC=O in this assay?
result: 0.0

query: Could you please tell me the result logged for CC/C=C\C/C=C\C/C=C\CCCCCCCC(=O)OC in this assay?
result: 1.0

---

target: Nuclear receptor subfamily 1 group I member 2 (Homo sapiens); experiment: ATG_PXR_TRANS: Attagene TRANS-FACTORIAL HepG2 Assay for human Pregnane X Receptor (PXR) (AID 2283008)
Inconclusive results are not listed. Activity calls are given as the source filed them. The calls were made as follows: active = hit-call score of the fitted dose curve at least 0.9, where 1 is the maximum; inconclusive = response in the unintended direction; inactive = score below 0.9.
// allowed return values: active, inactive

Recorded results for 5 compounds are shown here.
INSERT INTO measurements (compound, label_class) VALUES
  ('CC(=O)C(C)C', 'inactive'),
  ('CC(C)COC(=O)CC(C(=O)OCC(C)C)S(=O)(=O)O (stereo not given)', 'active'),
  ('Oc1ccccc1Cc1ccccc1O', 'inactive'),
  ('CCCCCCCCCC(C)=O', 'inactive'),
  ('CCCCC(C=O)CC (stereo not given)', 'inactive');

query: Could you please tell me the result logged for CC(C)c1ccc(O)c(C(C)C)c1 in this assay?
result: active

query: Could you please tell me the result logged for Cc1ccc(S(=O)(=O)N=C=O)cc1 in this assay?
result: inactive

query: Could you please tell me the result logged for c1ccc(Nc2cccc3ccccc23)cc1 in this assay?
result: active

query: Could you please tell me the result logged for C=CCOC(=O)c1ccc(C(=O)OCC=C)c(C(=O)OCC=C)c1 in this assay?
result: inactive

query: Could you please tell me the result logged for C=CC(C)(O)CC/C=C(\C)CC (stereo not given) in this assay?
result: active

query: Could you please tell me the result logged for [Cl][Sc]([Cl])[Cl] in this assay?
result: inactive

---

read-out: Monokine induced gamma interferon (MIG), CXCL9 (gene 4283); assay: BSK_hDFCGF_MIG: BioMAP Diversity Plus: hDFCGF Assay for Monokine induced gamma interferon (MIG) Biomarker Activity (AID 2283063); conditions: primary human foreskin fibroblasts; actives raise or lower the signal
The source made the active and inactive calls. How the source made its calls: active means hit-call score of the fitted dose curve at least 0.9, where 1 is the maximum; inactive means score below 0.9.
// allowed return values: yes = active, no = inactive

INSERT INTO results (compound, label_class) VALUES
  ('CCC1(C)C(=O)N(Cl)C(=O)N1Cl (stereo not given)', 'no'),
  ('CCCC(C)C(=O)OCC (stereo not given)', 'no'),
  ('C=CC(=O)NCOCCCC', 'no'),
  ('C=CC(=O)OCCCCCCOC(=O)C=C', 'yes');

query: Could you please tell me the result logged for O=C(Oc1ccccc1)c1ccccc1C(=O)Oc1ccccc1 in this assay?
result: no

---

test: ATG_GATA_CIS: Attagene CIS-FACTORIAL HepG2 Assay for human GATA Binding Protein (AID 2282944); details: HepG2 GATA cis-element reporter, Attagene multiplex mRNA; actives raise or lower the signal
Active and inactive are the calls of the source. Rule for the calls: active = hit-call score of the fitted dose curve at least 0.9, where 1 is the maximum; inactive = score below 0.9.
// allowed return values: T (active), F (inactive)

INSERT INTO assay_data (molecule, label_class) VALUES
  ('C=CCOC(=O)c1ccc(C(=O)OCC=C)c(C(=O)OCC=C)c1', 'F');

query: Could you please tell me the result logged for CC1=CC=C(C(C)C)CC1 in this assay?
result: F

query: Could you please tell me the result logged for NNS(=O)(=O)c1ccc(Oc2ccc(S(=O)(=O)NN)cc2)cc1 in this assay?
result: F

query: Could you please tell me the result logged for CC1=CCC(C(C)C)C=C1 (stereo not given) in this assay?
result: F

query: Could you please tell me the result logged for C=C(C)C1CC=C(C)CC1 (stereo not given) in this assay?
result: F

query: Could you please tell me the result logged for C=CC(=O)OCCCCCCCCCC in this assay?
result: F

query: Could you please tell me the result logged for O=C(O[C@@H]1Cc2c(O)cc(O)cc2O[C@@H]1c1cc(O)c(O)c(O)c1)c1cc(O)c(O)c(O)c1 in this assay?
result: F

query: Could you please tell me the result logged for CCCCc1ccc(Cl)cc1 in this assay?
result: F

query: Could you please tell me the result logged for CC(CCC(=O)O)(c1ccc(O)cc1)c1ccc(O)cc1 in this assay?
result: F

query: Could you please tell me the result logged for O=C(OCCc1ccccc1)c1ccccc1 in this assay?
result: F

query: Could you please tell me the result logged for C=CC(C)(CCC=C(C)C)OC(=O)C=Cc1ccccc1 (stereo not given) in this assay?
result: F

query: Could you please tell me the result logged for COc1nccnc1CC(C)C in this assay?
result: F

query: Could you please tell me the result logged for CC(=O)/C=C/C1C(C)=CCCC1(C)C (stereo not given) in this assay?
result: F

query: Could you please tell me the result logged for CCN1CN(CC)CN(CC)C1 in this assay?
result: F

query: Could you please tell me the result logged for COC(=O)C=Cc1ccccc1 in this assay?
result: F

query: Could you please tell me the result logged for CCOC(=O)c1ccccc1C in this assay?
result: F

query: Could you please tell me the result logged for N=C1C=CC(=C(c2ccc(N)cc2)c2ccc(N)cc2)C=C1 in this assay?
result: T

query: Could you please tell me the result logged for C1CCSC1 in this assay?
result: F

query: Could you please tell me the result logged for CC(C)CO in this assay?
result: F

query: Could you please tell me the result logged for CCCCCC1=CCCC1=O in this assay?
result: F
